Entries annotated with measured log10 of Kd
- study_target: GDP-bound KRAS wild-type protein (Homo sapiens)
- Sequence (P01116 1-188 isoform P01116-2): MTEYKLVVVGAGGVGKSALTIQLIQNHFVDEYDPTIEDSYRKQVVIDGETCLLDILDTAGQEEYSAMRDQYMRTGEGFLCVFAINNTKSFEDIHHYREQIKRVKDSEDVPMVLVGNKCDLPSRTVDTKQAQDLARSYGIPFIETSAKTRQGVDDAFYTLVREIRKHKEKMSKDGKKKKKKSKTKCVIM
- assay_notes: Binding to KRAS by surface plasmon resonance (SPR), dissociation constant KD
- assay_conditions: Single Cycle Kinetics
Note: values are log10 of Kd expressed in nM.

C=CC[C@H]1C(=O)N(C)[C@H](C(=O)N(C)C)CC(=O)N(C)[C@@H](CC(C)C)C(=O)N[C@@H]([C@@H](C)CC)C(=O)N(C)CC(=O)N(C)[C@H]2C/C=C\CCN(C2=O)[C@@H](Cc2ccc(C)cc2)C(=O)N(C)CC(=O)N[C@@H](CCc2ccc(C(F)(F)F)c(OC)c2)C(=O)N2C[C@H](OCC)C[C@H]2C(=O)N(C)C2(CCC2)C(=O)N1C
0.15
CCC[C@H]1C(=O)N[C@@H](C2CCCC2)C(=O)N(C)CC(=O)N(C)[C@H]2C/C=C\CCN(C2=O)[C@@H](Cc2ccc(C)cc2)C(=O)N(C)CC(=O)N[C@@H](CCc2ccc(C(F)(F)F)c(OC)c2)C(=O)N2CC3(CC3)C[C@H]2C(=O)N(C)C2(CCC2)C(=O)N(C)[C@@H](C(CC)CC)C(=O)N(C)[C@H](C(=O)N(C)C)CC(=O)N1C
-0.77
C=C(C)C[C@H]1C(=O)N(C)[C@H](C(=O)N(C)C)CC(=O)N(C)[C@@H](CC(C)C)C(=O)N[C@@H]([C@@H](C)CC)C(=O)N(C)CC(=O)N(C)[C@H]2C/C=C\CCN(C2=O)[C@@H](Cc2ccc(C)cc2)C(=O)N(C)CC(=O)N[C@@H](CCc2cc(F)c(C(F)(F)F)c(F)c2)C(=O)N2C[C@H](OCC)C[C@H]2C(=O)N(C)C2(CCC2)C(=O)N1C
0.23
CCCO[C@@H]1C[C@H]2C(=O)NC3(CC(C)(C)C3)C(=O)N(C)[C@@H](C3CCCC3)C(=O)N(C)[C@H](C(=O)N(C)CC)CC(=O)N(C)[C@@H](COCC)C(=O)N[C@@H]([C@@H](C)CC)C(=O)N3C[C@@H](C)C[C@H]3C(=O)N(C)[C@H]3C/C=C\CCN(C3=O)[C@@H](Cc3ccc(C(F)(F)F)cc3)C(=O)N(C)CC(=O)N[C@@H](CCc3ccc(C(F)(F)F)c(Cl)c3)C(=O)N2C1
0.58
CCC[C@H]1C(=O)N[C@@H]([C@@H](C)CC)C(=O)N(C)CC(=O)N(C)[C@H]2C/C=C\CCN(C2=O)[C@@H](Cc2ccc(C)cc2)C(=O)N(C)CC(=O)N[C@@H](CCc2ccc(C(F)(F)F)c(Cl)c2)C(=O)N2CC3(CC3)C[C@H]2C(=O)N(C)C2(CCC2)C(=O)N(C)[C@@H](C(CC)CC)C(=O)N(C)[C@H](C(=O)N(C)C)CC(=O)N1C
-0.89

Look up log10 of Kd of `CCC[C@H]1C(=O)N[C@@H](C23CC(C2)C3)C(=O)N(C)CC(=O)N(C)[C@H]2C/C=C\CCN(C2=O)[C@@H](Cc2ccc(C(F)(F)F)cc2)C(=O)N(C)CC(=O)N[C@@H](CCc2ccc(C(F)(F)F)c(OC)c2)C(=O)N2C[C@H](OCC)C[C@H]2C(=O)N(C)C2(CCC2)C(=O)N(C)[C@@H](C2CCCC2)C(=O)N(C)[C@H](C(=O)N(C)C)CC(=O)N1C` and report it.
-0.34

Look up log10 of Kd of `CCO[C@@H]1C[C@H]2C(=O)OC3(CCC3)C(=O)N(C)[C@@H](C3CCCC3)C(=O)N(C)[C@H](C(=O)N(C)C)CC(=O)N(C)[C@@H]([C@@H](C)OC)C(=O)N[C@@H]([C@@H](C)CC)C(=O)N(C3CC3)CC(=O)N(C)[C@H]3C/C=C\CCN(C3=O)[C@@H](Cc3ccc(C)cc3)C(=O)N(C)CC(=O)N[C@@H](CCc3ccc(C(F)(F)F)c(OC)c3)C(=O)N2C1` and report it.
-0.29
